test: in vivo; conditions: male, Sprague-Dawley, rat, po, 10 g/kg
assay-readout: Cmax (ng/mL)
Respond with the bare value in ng/mL.

Exercise: Could you please provide reported Cmax for O=C(O)c1cc(O)c(O)c(O)c1 ? Thanks!
Key: 2230

====

assay: Stability of QC samples of the analytes in rat plasma under storage conditions; assay type: physicochemical; details: spiked 40 ng/mL, three freeze-thaw cycles, n = 6
assay-readout: Measured concentration after storage (ng/mL)
Field: numeric (ng/mL). Do not append units.

Known results for compounds:
Exercise: State, in one line, measured Measured concentration after storage of O=C(O)C[C@@H]1C(=O)O[C@H]2[C@H](OC(=O)c3cc(O)c(O)c(O)c3)[C@@H](OC(=O)c3cc(O)c(O)c4c3[C@H]1[C@H](O)C(=O)O4)[C@H](OC(=O)c1cc(O)c(O)c(O)c1)O[C@@H]2COC(=O)c1cc(O)c(O)c(O)c1
Key: 41.8

Exercise: Fill in reported Measured concentration after storage for this entry: O=C(O)C[C@H](C(=O)O)[C@H]1c2c(cc(O)c(O)c2O)C(=O)O[C@@H]1C(=O)O
Key: 40.1

Exercise: Answer with reported Measured concentration after storage of O=C(O)c1cc(O)c(O)c(O)c1
Key: 41.0

Would you kindly look at the next entry?
Exercise: Please report the measured Measured concentration after storage for O=C(O[C@@H]1O[C@@H]2COC(=O)c3cc(O)c(O)c(O)c3-c3c(cc(O)c(O)c3O)C(=O)O[C@H]([C@H]1O)[C@@H]2O)c1cc(O)c(O)c(O)c1
Key: 42.8

====

assay: Pharmacokinetic study in rats after oral administration of TC extracts (UPLC-MS/MS of plasma); conditions: male, Sprague-Dawley, rat, plasma, po, 10 g/kg
Let's look at some compounds and their measured MRT.
Dear colleague, please return just the value in h, with no unit written.

# count of solved cases: 3
Exercise: # return recorded MRT for entry O=C(O[C@@H]1O[C@@H]2COC(=O)c3cc(O)c(O)c(O)c3-c3c(cc(O)c(O)c3O)C(=O)O[C@H]([C@H]1O)[C@@H]2O)c1cc(O)c(O)c(O)c1
Key: 53.5

Exercise: Quick one: give measured MRT for O=C(O)C[C@@H]1C(=O)O[C@H]2[C@H](OC(=O)c3cc(O)c(O)c(O)c3)[C@@H](OC(=O)c3cc(O)c(O)c4c3[C@H]1[C@H](O)C(=O)O4)[C@H](OC(=O)c1cc(O)c(O)c(O)c1)O[C@@H]2COC(=O)c1cc(O)c(O)c(O)c1
Key: 58.2

Exercise: Fill in MRT for record O=C(O)C[C@@H]1C(=O)O[C@H]2[C@@H]3OC(=O)c4cc(O)c(O)c(O)c4-c4c(cc(O)c(O)c4O)C(=O)OC[C@H]2O[C@@H](OC(=O)c2cc(O)c(O)c(O)c2)[C@@H]3OC(=O)c2cc(O)c(O)c3c2[C@H]1[C@H](O)C(=O)O3
Key: 49.8

Others:
Exercise: Name the recorded MRT of the item O=C(O)c1ccc(O)c(O)c1 in your answer.
Key: 3.39

Exercise: Quote MRT reported for O=c1oc2c(O)c(O)cc3c(=O)oc4c(O)c(O)cc1c4c23 please.
Key: 45.9

Exercise: State its MRT for this compound: CCOC(=O)c1cc(O)c(O)c(O)c1 [Ethyl gallate, ethyl gallate]
Key: 1.55
